Please go through the items and note down their solubility.
assay: Aqueous solubility of the compound at pH 7.4 after 4 hrs; format: physicochemical; details: buffer, pH 7.4, 4 h
Give bare numbers, in µg/mL.

Look over these answered cases.
CNC(=O)c1cc(N)c(Nc2ccc(C#N)cc2)cc1Oc1c(C)cc(CCC#N)cc1C :: 8.28
Cc1cc(CCC#N)cc(C)c1Oc1cc(Nc2ccc(C#N)cc2)c(N)cc1C(F)(F)F :: 0.24
Cc1cc(/C=C/C#N)cc(C)c1Oc1cc(Nc2ccc(C#N)cc2)c(N)cc1C(F)(F)F :: 0.24

Below is a list of molecules. For each, state its recorded solubility.
1. COC(=O)c1cc(N)c(Nc2ccc(C#N)cc2)cc1Oc1c(C)cc(CCC#N)cc1C
2. Cc1cc(CCC#N)cc(C)c1Oc1cc(Nc2ccc(C#N)cc2)c(N)cc1CO

1. 1.21
2. 18.8

Below is a list of molecules. For each, state its recorded solubility.
1. Cc1cc(/C=C/C#N)cc(C)c1Oc1cc(Nc2ccc(C#N)cc2)c(N)cc1[N+](=O)[O-]
2. Cc1cc(CCC#N)cc(C)c1Oc1cc(Nc2ccc(C#N)cc2)c(N)cc1C(N)=O
3. CC(=O)CCc1cc(C)c(Oc2cc(Nc3ccc(C#N)cc3)c(N)cc2C(F)(F)F)c(C)c1
4. Cc1cc(C#N)cc(C)c1Oc1cc(Nc2ccc(C#N)cc2)c(N)cc1C(F)(F)F

[0.29, 0.06, 0.16, 0.26]
